Would you kindly list Percent Cytotoxicity for each of these compounds?
# Test system: MiaPaCa.2 (human pancreas)
# test_description: MTT cytotoxicity assay, MiaPaCa.2 cells
# Type: cell-based
# cond: human, 48 hours, 1 nM
Starred links: 1 amine or outer side, 2 acyl side, 3 side chain; linkers in the order of their positions; H or OH if unused. Non-standard residues stand in square brackets, D forms with d. Residues, ends and D or L forms follow the SMILES beside them. 2Furoyl(5-aminomethyl) = O=C(c1ccc(CN[*:1])o1)[*:2]; X2 = O=C([C@@H]1CC[C@H](CN[*:1])O1)[*:2]; X1 = O=C(C1CCC(CN[*:1])O1)[*:2]
Reply with just the number (in %).

If you can, please state the reported Percent Cytotoxicity value of "CSCC[C@H](N)C(=O)NC[C@H]1CC[C@@H](C(=O)N[C@@H](Cc2ccc(O)cc2)C(=O)N[C@@H](CC(C)C)C(=O)O)O1" . 23.0

If you can, please state the reported Percent Cytotoxicity value of CSCC[C@H](NC(=O)[C@@H](N)CC(C)C)C(=O)NCc1ccc(C(=O)N[C@@H](Cc2ccc(O)cc2)C(=O)N[C@@H](CC(C)C)C(=O)N[C@@H](CCCCN)C(=O)O)o1 [SEQ ID NO: 18, Leu-Met-Saa1-Tyr-Leu-Lys] (H-LM[2Furoyl(5-aminomethyl)]YLK-OH) . 24.8

If you can, please state the reported Percent Cytotoxicity value of CSCC[C@H](NC(=O)[C@@H](N)CC(C)C)C(=O)N[C@@H](Cc1ccc(O)cc1)C(=O)NCC1CCC(C(=O)N[C@@H](Cc2ccc(O)cc2)C(=O)N[C@@H](CC(C)C)C(=O)N[C@@H](CCCCN)C(=O)O)O1 (stereo partly drawn) [SEQ ID NO: 12, Leu-Met-Tyr-Saa3-Tyr-Leu-Lys] (H-LMY[X1]YLK-OH) . 23.8

If you can, please state the reported Percent Cytotoxicity value of "CSCC[C@H](N)C(=O)NCc1ccc(C(=O)N[C@@H](Cc2ccc(O)cc2)C(=O)N[C@@H](CC(C)C)C(=O)O)o1" . 17.0

If you can, please state the reported Percent Cytotoxicity value of CSCC[C@H](NC(=O)[C@@H](N)CC(C)C)C(=O)N[C@@H](Cc1ccc(O)cc1)C(=O)NC[C@H]1CC[C@@H](C(=O)N[C@@H](Cc2ccc(O)cc2)C(=O)N[C@@H](CC(C)C)C(=O)N[C@@H](CCCCN)C(=O)O)O1 [SEQ ID NO: 13, Leu-Met-Tyr-Saa4-Tyr-Leu-Lys] (H-LMY[X2]YLK-OH) . 17.5

If you can, please state the reported Percent Cytotoxicity value of "CSCC[C@H](NC(=O)[C@@H](N)CC(C)C)C(=O)N[C@@H](Cc1ccc(O)cc1)C(=O)NC[C@H]1O[C@H](C(=O)N[C@H](C(=O)N[C@@H](Cc2ccc(O)cc2)C(=O)N[C@@H](CC(C)C)C(=O)N[C@@H](CCCCN)C(=O)O)[C@@H](C)O)[C@@H](OCc2ccccc2)[C@@H]1OCc1ccccc1" . 21.8

If you can, please state the reported Percent Cytotoxicity value of CSCC[C@H](NC(=O)[C@@H](N)CC(C)C)C(=O)N[C@@H](Cc1ccc(O)cc1)C(=O)NCc1ccc(C(=O)N[C@@H](Cc2ccc(O)cc2)C(=O)N[C@@H](CC(C)C)C(=O)N[C@@H](CCCCN)C(=O)O)o1 [SEQ ID NO: 10, Leu-Met-Tyr-Saa1-Tyr-Leu-Lys] (H-LMY[2Furoyl(5-aminomethyl)]YLK-OH) . 14.9
